The measured values listed here are drawn from patent US20230212222A1.

Listed compounds paired with reported EC50
Biological target: GPR39 (Homo sapiens, UniProt O43194)
Sequence (O43194 1-453): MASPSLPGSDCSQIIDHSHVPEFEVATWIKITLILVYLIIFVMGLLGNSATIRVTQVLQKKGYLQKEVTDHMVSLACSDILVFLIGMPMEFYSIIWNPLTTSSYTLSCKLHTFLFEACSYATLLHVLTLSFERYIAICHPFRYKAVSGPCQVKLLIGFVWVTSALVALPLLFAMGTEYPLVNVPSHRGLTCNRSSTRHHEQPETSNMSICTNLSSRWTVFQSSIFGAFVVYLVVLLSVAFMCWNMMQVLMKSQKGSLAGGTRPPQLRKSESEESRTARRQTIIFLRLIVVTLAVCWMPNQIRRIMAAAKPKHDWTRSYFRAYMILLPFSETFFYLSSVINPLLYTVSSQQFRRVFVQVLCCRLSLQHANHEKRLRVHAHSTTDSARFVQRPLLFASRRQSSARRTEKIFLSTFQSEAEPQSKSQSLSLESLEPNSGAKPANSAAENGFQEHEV
Test: luciferase assay system (SRE luciferase reporter gene) for GPR39 in CV-1 cells
Settings: EC50, CV-1 cells, GPR39 and SRE luciferase adenovirus, treated 6 hours, luminometer
Square brackets hold non-standard residues; d marks the D form. Peptide text beside a SMILES is read from it. * marks the point of attachment. His(Trt) = N[C@@H](Cc1cn(C(c2ccccc2)(c2ccccc2)c2ccccc2)cn1)C(=O)O; His(τ-CHPh2) = N[C@@H](Cc1cn(C(c2ccccc2)c2ccccc2)cn1)C(=O)O; Tyr(3-NH2) = Nc1cc(C[C@H](N)C(=O)O)ccc1O; dPhe(4-Me) = Cc1ccc(C[C@@H](N)C(=O)O)cc1; Myristoyl = CCCCCCCCCCCCCC(=O)*; Octanoyl = CCCCCCCC(=O)*
Entry rule: numbers only, all in nM.

Asked: Form entry - test system: GPR39 (Homo sapiens, UniProt O43194); read-out: EC50; compound: CCCCCCCCCCCCCC(=O)NCCCC[C@H](NC(=O)[C@@H](N)Cc1cn(C(c2ccccc2)(c2ccccc2)c2ccccc2)cn1)C(=O)N[C@@H](Cc1ccccc1)C(=O)N[C@@H](Cc1ccc(O)cc1)C(=O)O [HKFY-26] (H-[His(Trt)]K(Myristoyl)FY-OH)
Given back: 280

Asked: Subsequent entry: CCCCCCCC(=O)NCCCC[C@H](NC(=O)[C@@H](N)Cc1cn(-c2ccccc2)cn1)C(=O)N[C@H](Cc1ccc(C)cc1)C(=O)N[C@@H](Cc1ccc(O)cc1)C(=O)O [HKFY-58]
Given back: 20

Asked: # iterate: CCCCCCCC(=O)NCCCC[C@H](NC(=O)[C@@H](N)Cc1cn(C(c2ccccc2)(c2ccccc2)c2ccccc2)cn1)C(=O)N[C@H](Cc1ccc(C)cc1)C(=O)N[C@@H](Cc1ccc(O)cc1)C(=O)O [HKFY-30] (H-[His(Trt)]K(Octanoyl)[dPhe(4-Me)]Y-OH)
Given back: 8

Asked: Also check CCCCCCCC(=O)NCCCC[C@H](NC(=O)[C@@H](N)Cc1cn(C(c2ccccc2)c2ccccc2)cn1)C(=O)N[C@H](Cc1ccc(C)cc1)C(=O)N[C@@H](Cc1ccc(O)c(N)c1)C(=O)O [HKFY-70] (H-[His(τ-CHPh2)]K(Octanoyl)[dPhe(4-Me)][Tyr(3-NH2)]-OH)
Given back: 20
